- method-description: qHTS assay for MDR1-selective chemotherapeutics: Primary screen using the drug-selected MDR subline cells KB-V1; note: nearly all actives have a fitted effect of over 60% in size
- condition-label: KB-V1 MDR cells viability, CellTiter-Glo, 72 h; series mostly up to 46.1 µM
Out of some 400,000 compounds screened, about 13,000 (3.2%) were called active. Not shown: some 18% with an inconclusive outcome. Calls come from the whole dose curve; as a rule, active = well fitted cell-killing curve with a large enough effect; inconclusive = small, poorly fitted or top-dose-only effect, or effect the other way; inactive = flat fitted curve, though single readings scatter. Shown is part of a subset that was picked to be rich in actives.
Select the matching outcome among active, inactive

Before answering, review these 5 worked examples.
1. COc1ccc(NS(=O)(=O)c2ccc(C(=O)Nc3c(C)n(C)n(-c4ccccc4)c3=O)cc2)cc1 :: inactive
2. CCCn1c(NCc2ccc(N(CC)CC)cc2)nc2ccccc21 :: inactive
3. CCn1c(C)c(C)c2cc(C(=O)N3CCN(c4cccc(C)c4C)CC3)ccc21 :: inactive
4. CCCOc1ccccc1C1CC(=O)Nc2cc3c(cc21)OCO3 (stereo not given) :: active
5. CCCC(=O)N1CCC1(C)C(=O)Nc1ccc(-n2cncn2)cc1 (stereo not given) :: inactive

**Query** Returns: the outcome recorded for OCCN1CCN(c2ncnc3c2ncn3[C@H]2CN(Cc3ccco3)C[C@@H](CO)O2)CC1 in this assay.
**Result** inactive

**Query** Query: recorded result category for COc1cc(OC)cc(C2=Cc3ccccc3C(CC(=O)c3ccco3)N2c2ccc(-c3cnc(OC)nc3)cc2)c1 (stereo not given) in this test
**Result** inactive

**Query** Hi team, can someone confirm the assay call for Cc1ccccc1-c1nc(CS(=O)(=O)CC(=O)Nc2cc(Cl)cc(Cl)c2)c(C)o1 ?
**Result** inactive

**Query** // outcome(item) with item = CC1(C(=O)NS(=O)(=O)c2ccc(Cl)cc2)CCN1C(=O)CC1CCCC1 (stereo not given)
**Result** inactive

**Query** For this compound, state the assay outcome: CCOC(=O)C1CCCN(C(=O)c2cccc3ccccc23)CC1 (stereo not given)
**Result** inactive

**Query** Test call, this compound: COC(=O)C1=C(C)NC(=O)CC1c1ccccc1OC (stereo not given)
**Result** inactive

**Query** Please let me know the test result on file for Cc1c(Cl)cccc1NC(=O)C1CCCN(C(=O)c2cnn(-c3ccccc3)c2-n2cccc2)C1 (stereo not given) .
**Result** inactive

**Query** What is the recorded call for this compound in the test? CCN(CC(=O)Nc1ccc(NC(C)=O)cc1)C(=O)C1CC(=O)N(c2ccc3c(c2)OCCO3)C1 (stereo not given)
**Result** inactive

**Query** Could you please tell me the result logged for Cc1ccn(CC(=O)N2N=C(C(F)F)CC2(O)C(F)F)n1 (stereo not given) in this assay?
**Result** inactive

**Query** State the result this test recorded for CCOc1ccccc1CNC(=O)c1cnc2c(-c3ccc(OCC)c(OCC)c3)c(C)nn2c1C .
**Result** inactive

**Query** Dear all, I need the recorded test outcome for COc1ccc2c(c1)CCc1c(C(=O)Nc3cc(C)ccc3O)noc1-2 , thank you.
**Result** inactive

**Query** Entry Cc1nn(Cc2ccc(C(=O)N3N=C(C(F)F)CC3(O)C(F)F)cc2)c(C)c1[N+](=O)[O-] (stereo not given) : call = ?
**Result** active
